target: human P2X7 receptor (Homo sapiens, UniProt Q99572, R270H/Y155H); experiment: Evaluation of human P2X7 receptor inhibitory activity (Yo-Pro uptake, BzATP stimulation, FLIPR TETRA); format: cell-based; conditions: 1321N1 cells stably expressing human P2X7 receptor; BzATP stimulation, Yo-Pro uptake; read-out: IC50 (antagonistic activity for the human P2X7 receptor)
observable: pIC50
Worth noting: pIC50 values are minus log10 of concentrations stated in mol/L.

Record excerpt, results attached:
>  <compound>
COc1cn(Cc2ccc(F)c(Cl)c2)c(Nc2cc(C)c(C)cc2C)nc1=O

>  <observable>
pIC50

>  <readout number>
6.80

$$$$
>  <compound>
Cc1nc2cc(C)c(Nc3nc(=O)c(F)cn3Cc3ccccc3)cc2s1

>  <observable>
pIC50

>  <readout number>
7.92

$$$$
>  <compound>
COc1cn(Cc2ccc(F)c(Cl)c2)c(Nc2cc3c(cc2C)OCO3)nc1=O

>  <observable>
pIC50

>  <readout number>
7.80

$$$$
>  <compound>
Cc1c(Cl)cccc1Nc1nc(=O)c(C(=O)NC2CCOCC2)cn1Cc1ccccc1

>  <observable>
pIC50

>  <readout number>
7.31

$$$$
>  <compound>
COc1cc(C)c(Nc2ncc(OC)c(=O)n2Cc2ccc(F)c(Cl)c2)cc1C

>  <observable>
pIC50

>  <readout number>
7.19

$$$$

Notebook: pull reported pIC50 for human P2X7 receptor (Homo sapiens, UniProt Q99572, R270H/Y155H), entry `COc1cccc(Cn2cc(OC)c(=O)nc2Nc2cccc(Cl)c2C)c1`
6.89

Notebook: pull reported pIC50 for human P2X7 receptor (Homo sapiens, UniProt Q99572, R270H/Y155H), entry `COc1cn(Cc2ccc(F)c(Cl)c2)c(N[C@@H]2CCCc3ccccc32)nc1=O`
6.92

Notebook: pull reported pIC50 for human P2X7 receptor (Homo sapiens, UniProt Q99572, R270H/Y155H), entry `COc1cn(Cc2ccc(F)c(Cl)c2)c(Nc2ccc3oc(C)cc3c2C)nc1=O`
8.05
